Where do these numbers come from? They come from PubChem BioAssay AID1942.

Assayed target: Potassium voltage-gated channel subfamily KQT member 2 (Rattus norvegicus) (UniProt O88943)
Sequence (O88943 whole entry, looked up): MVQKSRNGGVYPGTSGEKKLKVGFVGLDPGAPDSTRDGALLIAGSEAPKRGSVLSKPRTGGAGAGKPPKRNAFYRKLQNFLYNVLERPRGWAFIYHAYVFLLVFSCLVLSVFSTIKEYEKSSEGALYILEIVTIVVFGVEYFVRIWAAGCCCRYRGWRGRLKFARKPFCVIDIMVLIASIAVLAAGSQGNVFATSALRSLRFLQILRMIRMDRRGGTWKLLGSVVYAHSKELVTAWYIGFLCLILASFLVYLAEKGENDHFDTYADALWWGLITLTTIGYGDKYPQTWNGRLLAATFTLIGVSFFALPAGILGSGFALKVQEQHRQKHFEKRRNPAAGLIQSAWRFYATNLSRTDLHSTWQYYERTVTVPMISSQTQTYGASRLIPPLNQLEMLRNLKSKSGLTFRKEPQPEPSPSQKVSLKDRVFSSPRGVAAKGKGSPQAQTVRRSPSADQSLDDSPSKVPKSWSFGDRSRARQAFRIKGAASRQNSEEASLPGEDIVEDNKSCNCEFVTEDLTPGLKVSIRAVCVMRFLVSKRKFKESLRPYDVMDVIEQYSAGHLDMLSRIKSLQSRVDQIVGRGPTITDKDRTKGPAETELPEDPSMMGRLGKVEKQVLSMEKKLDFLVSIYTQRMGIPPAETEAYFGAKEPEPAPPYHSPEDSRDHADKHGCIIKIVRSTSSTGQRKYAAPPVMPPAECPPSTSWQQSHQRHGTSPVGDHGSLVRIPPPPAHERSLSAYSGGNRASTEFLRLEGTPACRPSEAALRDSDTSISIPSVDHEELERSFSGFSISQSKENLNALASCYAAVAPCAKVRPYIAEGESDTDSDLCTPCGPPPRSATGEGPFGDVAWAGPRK
Protocol text: KCNQ2 potentiation in CHO cells – cell-based, FluxOR thallium flux, counter-screen for hERG block protector project, confirmation (AID 1942);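 further: normalized value minus buffer-control mean plus three SD of buffer wells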
Assay setup: FluxOR thallium flux fluorescence, at 10 µM, stronger effect = higher value
Among all 2,400 compounds or so, about 580 (24%) were called active. Only a sample is shown.
Metric name: activity change, less the hit threshold (%)
Value expressed in %; do not type the unit.

Record excerpt, results attached:
In [3]: df
Out[3]:
                                   compound  result_value
0  O=C(N/N=C1/C(=O)c2cccc3cccc1c23)c1ccc(Cl)cc1          73.4
1  CN1N=C(C(=O)N2CCc3c([nH]c4ccccc34)C2c2c(F)cccc2Cl)CCC1=O (stereo unspecified)         -22.4
2      O=C(Nc1nnc(C2=COCCO2)o1)c1ccc(Br)cc1          -2.3
3          CCCCn1nnc(NC(=O)Cc2ccc(Cl)cc2)n1         -11.7

QUERY: I have this compound here, Cc1cc(C)nc(SCc2nnc(SCC(=O)Nc3nc(-c4ccccc4)cs3)n2-c2ccccc2)n1 , and I need its recorded activity change, less the hit threshold.
RESULT: -11

QUERY: Given the compound CCNC(=S)N/N=C1\C(=O)c2cccc3cccc1c23 , what is its reported activity change, less the hit threshold?
RESULT: -4

QUERY: Consider the compound shown here: Cc1ccc(OCC(=O)NC(=S)Nc2ccc(Br)cn2)cc1 What is its recorded activity change, less the hit threshold?
RESULT: 12.4

QUERY: Entry Cc1cc(NC(=O)CSc2ccc3nnc(-c4cccs4)n3n2)no1 has what activity change, less the hit threshold?
RESULT: -20.2

QUERY: Param item = COc1ccc(C(=O)NNC(=O)CSc2nnc(COc3ccccc3)n2C)cc1 ; retrieve measured activity change, less the hit threshold.
RESULT: -15.5

QUERY: May I ask what activity change, less the hit threshold has been recorded for O=C(O)Cn1cc(CN2CCOCC2)c2ccccc21 ?
RESULT: -20.4

QUERY: State the recorded activity change, less the hit threshold for this entry: CCC1(C)CC2(CCCN(CCC(=O)c3ccccc3)C2)CCO1 (stereo unspecified)
RESULT: -25

QUERY: Need activity change, less the hit threshold, item CCN(CC)CCCNC(=O)c1cn(-c2cccc(OC)c2)c(=O)c2ccccc12
RESULT: -18.5

QUERY: Give its activity change, less the hit threshold value. Item: OC(CNCC(c1ccc(Cl)cc1Cl)c1c[nH]c2ccccc12)c1ccccc1 (stereo unspecified)
RESULT: -43.4

QUERY: If you can, please state the reported activity change, less the hit threshold value of O=C(N/N=C/c1ccccn1)c1cc(-c2ccc(Br)cc2)nc2ccccc12 .
RESULT: -26.1

QUERY: What value of measured activity change, less the hit threshold is listed for O=C(CCc1ccccc1Cl)Nc1ccc(S(=O)(=O)N2CCOCC2)cc1 ?
RESULT: -19.3

QUERY: Need activity change, less the hit threshold, item S=c1[nH]cnc2scc(-c3ccccc3)c12
RESULT: 44.9

QUERY: Given CCOC(=O)N1CCC(N2C(=O)c3ccccc3C2Nc2cccnc2)CC1 (stereo unspecified) , state its recorded activity change, less the hit threshold.
RESULT: -1.9

QUERY: Endpoint output: activity change, less the hit threshold of O=C(Cn1nnc(-c2cccc(C(F)(F)F)c2)n1)N1CCCCCC1 . Value?
RESULT: 13.3

QUERY: Which activity change, less the hit threshold value belongs to CC(C)C(=O)Nc1ccc2c(c1)Cc1cc(NC(=O)C(C)C)ccc1-2 ?
RESULT: -17.9

QUERY: Entry under review: Cc1ccc(-c2csc3nc[nH]c(=S)c23)cc1 . Reported activity change, less the hit threshold?
RESULT: 41

QUERY: Could you share which activity change, less the hit threshold value was measured for O=[N+]([O-])c1cccc(NC(=S)Nc2nc(-c3ccccc3Cl)cs2)c1 ?
RESULT: -7.3

QUERY: Which activity change, less the hit threshold is reported for this compound? O=C(c1cccc(C(F)(F)F)c1)C1CCCN(C(=O)CCn2cnnn2)C1 (stereo unspecified)
RESULT: -8.8

QUERY: Given Cc1cc(NC(=O)CSc2ccc(-c3ccc(F)cc3)nn2)no1 , state its recorded activity change, less the hit threshold.
RESULT: -18.3

QUERY: So what's the measured activity change, less the hit threshold for this one? Cc1ccc(/C=N/Nc2nc(C(C)(C)C)cs2)o1
RESULT: -0.3

QUERY: Please look up its activity change, less the hit threshold: CN(C)S(=O)(=O)c1cccc(C(=O)Nc2cccnc2)c1
RESULT: -13.5

QUERY: Recorded activity change, less the hit threshold for COC(=O)c1sccc1NC(=S)N1CC(C)CC(C)C1 (stereo unspecified) , please?
RESULT: -25

QUERY: State the recorded activity change, less the hit threshold for this entry: CCCOc1ccc(C(=O)N(CC(C)C)c2c(N)n(Cc3ccccc3)c(=O)[nH]c2=O)cc1
RESULT: -17.9

QUERY: Field request: activity change, less the hit threshold | item: Cc1cccc(NC(=S)N/N=C2\CC(C)(C)Oc3ccc(O)cc32)c1
RESULT: -9.9
